TGT: Tumor susceptibility gene 101 protein (Homo sapiens)
TEST_DETAILS: qHTS Assay for Iinhibitors of HIV-1 Budding by Blocking the Interaction of PTAP/TSG101: Hit Validation (AID 651600); further: potency means the concentration at half of the fitted maximal effect; nearly all actives have a fitted effect of over 70% in size
REPORTED_CONDITIONS: PTAP peptide/TSG101 UEV interaction, biochemical assay; series mostly up to 57.5 µM
Inconclusive results are not listed. Active and inactive are the calls of the source. The call rests on the fitted dose curve; in most records, active means well fitted inhibition curve with a large enough effect; inconclusive means small, poorly fitted or top-dose-only effect; inactive means no such curve, though single readings can be large or run the other way.
PROPERTY_NAME: Potency

> print(dat)
                         structure.smiles  property.name    reported.value
1  Nc1ccc2c3c(cccc13)C(=O)N(c1ccccc1)C2=O        Potency  3.66 µM (active)

// for each molecule below, give its Potency
1. Oc1ccc2ccc3cccc[n+]3c2c1
2. CNc1ccc2c3c(cccc13)C(=O)N(C)C2=O

Key:
1. 4.11 µM (active)
2. 2.06 µM (active)
